Collected INHIBITION values appear next to each entry.
# Test system: Plasmodium berghei
# ASSAY_METHOD_TEXT: Screen against P. berghei liver stage (PbLuc), transformed with Luciferase, at 10uM
# Type: functional, HepG2
# REPORTED_CONDITIONS: tested at 10 uM
Out of some 69,000 compounds screened, about 8,600 (12%) showed an effect of 50% or more. This excerpt belongs to a sample that is enriched for strong results.
Give the quantity in %, number only.

Some entries whose results are on file:
[[record]]
compound = "CSc1ccc(C(=O)N2C[C@@H]3CC[C@H]2CN(Cc2ccccc2)C3)cc1"
property_name = "INHIBITION"
numeric_result = 39.1

[[record]]
compound = "CCc1c(C)nn(CCN2CC3(CCOC3)CCC2=O)c1C (stereo not drawn)"
property_name = "INHIBITION"
numeric_result = 44.3

[[record]]
compound = "O=C1CCCN1C1CCCN(CCOc2ccc(F)cc2)C1 (stereo not drawn)"
property_name = "INHIBITION"
numeric_result = 31.2

[[record]]
compound = "COC(=O)N1CCN(Cc2ccccc2C(C)(C)C#N)CC1"
property_name = "INHIBITION"
numeric_result = 39.2

[[record]]
compound = "Cc1cc(N[C@H]2CN(CC(C)(C)N3CCOCC3)C[C@@H]2C2CC2)ncn1"
property_name = "INHIBITION"
numeric_result = 35.8

[[record]]
compound = "C[C@@H]1CN(c2nc(N)nc3c2CCC3)C[C@]1(C)O"
property_name = "INHIBITION"
numeric_result = 8.53


Please provide the recorded INHIBITION for C[C@@H]1CN(c2nc3c(cc2C(N)=O)CCC3)CC[C@@]1(O)C1CCC1 , tested on Plasmodium berghei.
-2.93

What is its INHIBITION for Plasmodium berghei? Entry: NC(=O)c1csc(N2CCN(C3CCc4ccccc4C3)CC2)n1 (stereo not drawn)
47.6

Record lookup: for Plasmodium berghei, what INHIBITION belongs to CC(C)CCN1CCN(C(=O)c2c[nH]nn2)CC1 ?
-0.275

Which INHIBITION is reported with Plasmodium berghei for this entry: Cc1cc(Nc2nc(C)cc(C)n2)cc(C2CCCN2)n1 (stereo not drawn) ?
49.2

API: value(readout=INHIBITION, system=Plasmodium berghei) for record Cc1ccc2[nH]c(C3CCN(CC(N)=O)CC3)nc2c1
-9.51

Which measured INHIBITION belongs to Cc1ccc(N2CCC3(CC2)CCN(C2CCOCC2)CC3)nn1 , tested on Plasmodium berghei?
58.7

Can you look up INHIBITION on Plasmodium berghei for CCOC(=O)CN1CCC2(CCCN(CCOc3ccccc3)C2)C1 (stereo not drawn) ?
21.1

INHIBITION of Cc1ccc(N2CCC3(CCN(C(=O)C4CCOC4)CC3)CC2)nn1 (stereo not drawn) on Plasmodium berghei?
-45.8

Lab request: please report INHIBITION under test system Plasmodium berghei for Cc1ccc2nc(CSCC(=O)Nc3nnc(C(C)C)s3)cc(=O)n2c1
50.2

# get_value(readout= INHIBITION, system= Plasmodium berghei) for CCc1ccccc1CN1CCC(N2CCCC2=O)CC1
-0.87

---

# System: Plasmodium berghei
# ASSAY_METHOD_TEXT: Screen against P. berghei liver stage (PbLuc), transformed with Luciferase, at 10uM
# Assay type: functional, HepG2
# REPORTED_CONDITIONS: tested at 10 uM
Hit rate of the full screen: of about 69,000 compounds, about 8,600 (12%) showed an effect of 50% or more. The entries come from a sample that favours strong results as a whole.
INHIBITION below 30% gives Not fulfilled; INHIBITION at or above it gives Fulfilled.

Some solved cases for reference:
[[record]]
molecule = "Cc1nc[nH]c1CN(Cc1ccc(F)cc1)C1CC(C)(C)NC(C)(C)C1"
category = "Fulfilled"

[[record]]
molecule = "Cc1noc(C(C)C)c1C(=O)NCc1cccnc1"
category = "Fulfilled"

[[record]]
molecule = "Cc1ccc(CN2CCS(=O)(=O)C(C)(C)C2)cc1C"
category = "Fulfilled"

[[record]]
molecule = "CC(NCc1cccnc1)c1cc2c(cc1Br)OCCO2 (configuration not stated)"
category = "Not fulfilled"

[[record]]
molecule = "CC1(C)CC(N(Cc2cccnc2)Cc2cccc(F)c2)CC(C)(C)N1"
category = "Fulfilled"


Is the recorded value of INHIBITION equal to or greater than 30% for this molecule? CC(NCc1ccccn1)c1cc2c(cc1Br)OCCO2 (configuration not stated)
Fulfilled

Given the entry CCOCc1nc(-c2ccc(F)cc2Cl)n(C2CCN(C)CC2)n1 , answer whether its INHIBITION meets or surpasses 30%.
Not fulfilled

Please tell me: is the molecule Cc1c(C(C)NC(=O)Nc2ccc(F)c(F)c2)cnn1C (configuration not stated) at or over 30% in terms of INHIBITION?
Not fulfilled

Check if INHIBITION >= 30% (inclusive). Item: Cc1ccc(-c2ncc(C(=O)NCCNC(=O)C(C)C)s2)c(C)c1
Not fulfilled

Is INHIBITION at least 30%? Consider CSc1ccc(CN2CCCC3(CNC(=O)c4ccccc4O3)C2)cc1 (configuration not stated)
Fulfilled

I'd appreciate it if you could say whether Cc1cccc(-c2nc(N)nc3c2CN(C(=O)c2cc(C)n[nH]2)C3C)c1 (configuration not stated) has INHIBITION at least equal to 30%.
Fulfilled
